# systemUnderTest: Tubulin (Sus scrofa, UniProt P02554+P02550)
# procedureText: Inhibition of pig tubulin polymerization determined after 45 mins at 37 degC by turbidimetric analysis
# Type: protein assay

{"compound": "COc1ccc(C(=O)N2c3ccccc3Oc3cccc(C#N)c32)cc1", "readoutUnits": "µM", "relationSign": "=", "IC50": 0.96}
{"compound": "N#Cc1ccc2c(c1)Oc1ccccc1N2C(=O)c1ccc(Cl)cc1", "readoutUnits": "µM", "relationSign": "=", "IC50": 2.39}
{"compound": "COc1ccc(C(=O)N2c3ccccc3Oc3ccc(Cl)cc32)cc1O", "readoutUnits": "µM", "relationSign": "=", "IC50": 0.73}
{"compound": "O=C(c1ccc(Cl)cc1)N1c2ccccc2Oc2ccc(Cl)cc21", "readoutUnits": "µM", "relationSign": "=", "IC50": 2.42}
{"compound": "COc1cc(C(=O)N2c3ccccc3[S+]([O-])c3ccccc32)cc(OC)c1OC", "readoutUnits": "µM", "relationSign": ">", "IC50": 10}
{"compound": "COc1cc(C(=O)N2c3ccccc3[S+]([O-])c3ccc(Cl)cc32)cc(OC)c1OC (stereo unspecified)", "readoutUnits": "µM", "relationSign": ">", "IC50": 10}
{"compound": "COc1ccc(C(=O)N2c3ccccc3Sc3ccccc32)cc1O", "readoutUnits": "µM", "relationSign": "=", "IC50": 1.4}
{"compound": "N#Cc1ccc2c(c1)Oc1ccccc1N2", "readoutUnits": "µM", "relationSign": ">", "IC50": 10}
{"compound": "COc1ccc(C(=O)N2c3ccccc3S(=O)(=O)c3ccccc32)cc1", "readoutUnits": "µM", "relationSign": "=", "IC50": 2.53}
{"compound": "COc1cc(C(=O)N2c3ccccc3Sc3ccc(Cl)cc32)cc(OC)c1OC", "readoutUnits": "µM", "relationSign": ">", "IC50": 10}
{"compound": "Clc1ccc2c(c1)Nc1ccccc1O2", "readoutUnits": "µM", "relationSign": ">", "IC50": 10}

====

# systemUnderTest: Tubulin (Sus scrofa, UniProt P02554+P02550)
# procedureText: Inhibition of pig tubulin polymerization determined after 45 mins at 37 degC by turbidimetric analysis
# Type: protein assay
parameterMeasured: IC50 (nM)

{"recordSmiles": "COc1ccc(CC(=O)N2c3ccccc3Oc3ccccc32)cc1", "parameterMeasured": "IC50", "relationSign": ">", "experimentalValue": 10000}
{"recordSmiles": "c1ccc2c(c1)Nc1ccccc1O2", "parameterMeasured": "IC50", "relationSign": ">", "experimentalValue": 10000}
{"recordSmiles": "N#Cc1ccc2c(c1)Oc1ccccc1N2C(=O)c1ccccc1", "parameterMeasured": "IC50", "relationSign": "=", "experimentalValue": 1200}
{"recordSmiles": "O=C(c1ccc2c(c1)OCO2)N1c2ccccc2Oc2ccc(Cl)cc21", "parameterMeasured": "IC50", "relationSign": "=", "experimentalValue": 1130}
{"recordSmiles": "COc1ccc(C(=O)N2c3ccccc3Sc3ccc(C(F)(F)F)cc32)cc1", "parameterMeasured": "IC50", "relationSign": ">", "experimentalValue": 10000}
{"recordSmiles": "COc1ccc(C(=O)N2c3ccccc3Sc3ccc(OC)cc32)cc1", "parameterMeasured": "IC50", "relationSign": "=", "experimentalValue": 3230}
{"recordSmiles": "COc1ccc(C(=O)N2c3ccccc3Oc3cc(C#N)ccc32)cc1O", "parameterMeasured": "IC50", "relationSign": "=", "experimentalValue": 520}
{"recordSmiles": "COc1ccc(CC(=O)N2c3ccccc3Oc3ccc(Cl)cc32)cc1", "parameterMeasured": "IC50", "relationSign": "=", "experimentalValue": 1100}
{"recordSmiles": "COc1ccc(C(=O)N2c3cc(Cl)ccc3Oc3ccc(Cl)cc32)cc1", "parameterMeasured": "IC50", "relationSign": "=", "experimentalValue": 700}
{"recordSmiles": "COc1ccc(C(=O)N2c3ccccc3[S+]([O-])c3ccccc32)cc1O", "parameterMeasured": "IC50", "relationSign": "=", "experimentalValue": 8400}
{"recordSmiles": "COc1ccc(C(=O)N2c3ccccc3S(=O)(=O)c3ccc(Cl)cc32)cc1", "parameterMeasured": "IC50", "relationSign": "=", "experimentalValue": 1050}
{"recordSmiles": "COc1cc(C(=O)N2c3ccccc3Sc3ccccc32)cc(OC)c1OC", "parameterMeasured": "IC50", "relationSign": "=", "experimentalValue": 4960}

Values were extracted from ChEMBL document CHEMBL1799999.
